Tested on: RPMI-8226
Test: NCI tumour cell line growth inhibition, 48 h
Active and inactive are the calls of the source. Cut-off read from the data, not from the text of the source: active = GI50 up to about 1.1 µM and inactive = higher. Where a SMILES comes first, the peptide text is derived from it. The star is where a group is joined. Boc = CC(C)(C)OC(=O)*; Bn = c1ccc(C*)cc1
Parameter call: string, one of 1 (yes) for active, 0 (no) for inactive

[
  {
    "Compound": "Cc1cn(CC2=NCC(O)CN2)c(=O)[nH]c1=O (stereo not drawn)",
    "Category": "0 (no)"
  },
  {
    "Compound": "CC1=C(C(=O)Nc2cc(F)c(F)cc2F)C(c2ccc([N+](=O)[O-])cc2)C(C(=O)Nc2cc(F)c(F)cc2F)=C(C)N1",
    "Category": "0 (no)"
  },
  {
    "Compound": "Nc1nc(N)c2c(Cl)c(CNc3ccc(C(=O)NC(CC(=O)O)C(=O)O)cc3)ccc2n1 (stereo not drawn)",
    "Category": "1 (yes)"
  }
]

Please share the test call associated with `CCc1c(Cl)c(C)cc(O)c1Cl` .
0 (no)

Please share the test call associated with `COc1ccc(-c2cc(-c3ccc(Nc4ccnc5cc(C(F)(F)F)ccc45)cc3)nc(N)c2C#N)c2ccccc12` .
0 (no)

Please share the test call associated with `Clc1ccc(-c2nnc3c4nnc(-c5ccc(Cl)cc5Cl)n4c4ccccc4n23)c(Cl)c1` .
0 (no)

Please share the test call associated with COC(=O)C(CC(C)C)NC(=O)C(C)NC(=O)C(Cc1ccc(OCc2ccccc2)cc1)NC(=O)C(COCc1ccccc1)NC(=O)OC(C)(C)C (stereo not drawn) (Boc-S(Bn)Y(Bn)AL-OMe; configuration not given here) .
0 (no)

Please share the test call associated with `O=S(=O)(O)c1cc(/N=[N+](\[O-])c2cc(S(=O)(=O)O)c3ccccc3c2)cc2ccccc12` .
0 (no)
